# System: Enterococcus faecium
# Method summary: microbe, parasite or virus in culture
# Condition description: NCTC 7171
# Description: Antibacterial activity against Enterococcus faecium NCTC 7171 assessed as bacterial growth inhibition after 16-20 hrs by broth microdilution method
Endpoint name: MIC

• CC1=C(C(N)=O)C(c2c[nH]c3ccccc23)n2nc(SCc3ccccc3)nc2N1 (centres undefined) = > 128 µg/mL
• CC1=C(C(N)=O)C(c2ccc(N(C)C)cc2)n2nc(SCC(N)=O)nc2N1 (centres undefined) = > 128 µg/mL
• CCOC(=O)C1=C(C)Nc2nc(SCc3ccccc3)nn2C1c1ccc(N(C)C)cc1 (centres undefined) = > 128 µg/mL
• CC1=C(C(N)=O)C(c2ccc(N(C)C)cc2)n2nc(N)nc2N1 (centres undefined) = > 128 µg/mL
• CC1=C(C(N)=O)C(c2ccc(C(C)C)cc2)n2nc(SCc3ccccc3)nc2N1 (centres undefined) = 8 µg/mL
• CC1=C(C(N)=O)C(c2ccco2)n2nc(SCc3ccccc3)nc2N1 (centres undefined) = > 128 µg/mL
• COc1ccc(C2C(C(=O)Nc3ccc(C)cc3C)=C(C)Nc3nc(SCc4cccc(C)c4)nn32)cc1 (centres undefined) = > 128 µg/mL
• CC1=C(C(N)=O)C(c2ccc(OC(F)(F)F)cc2)n2nc(SCc3ccccc3)nc2N1 (centres undefined) = 8 µg/mL
• CC1=C(C(N)=O)C(c2ccc(N(C)C)cc2)n2nc(SCc3ccc(OC(F)(F)F)cc3)nc2N1 (centres undefined) = > 128 µg/mL

====

Property: MIC; scope: individual compounds
# Tested on: Enterococcus faecium
# Method summary: microbe, parasite or virus in culture
# Condition description: NCTC 7171
Endpoint name: MIC

• CC1=C(C(=O)Nc2ccc(C)cc2C)C(c2ccc(C)cc2)n2nc(SCc3cccc(C)c3)nc2N1 (stereo not drawn) = > 128 µg/mL
• COc1ncccc1C1C(C(N)=O)=C(C)Nc2nc(SCc3ccccc3)nn21 (stereo not drawn) = 128 µg/mL
• COc1ccc(C2C(C(N)=O)=C(C)Nc3nc(SCc4ccccc4)nn32)cc1O (stereo not drawn) = > 128 µg/mL
• CC1=C(C(N)=O)C(c2ccc(N(C)C)cc2)n2nc(SCc3ccc(C)cc3)nc2N1 (stereo not drawn) = > 128 µg/mL
• CC1=C(C(N)=O)C(c2ccc(C(=O)O)cc2)n2nc(SCc3ccccc3)nc2N1 (stereo not drawn) = > 128 µg/mL
• CC1=C(C(N)=O)C(c2ccc(C)cc2)n2nc(SCc3ccccc3)nc2N1 (stereo not drawn) = > 128 µg/mL
• CC1=C(C(N)=O)C(c2ccc(N(C)C)cc2)n2nc(SCc3ccccc3)nc2N1 (stereo not drawn) = 4 µg/mL
• CC1=C(C(N)=O)C(c2cccc(C(C)C)c2)n2nc(SCc3ccccc3)nc2N1 (stereo not drawn) = 16 µg/mL
• COc1ccc(CSc2nc3n(n2)C(c2ccc(N(C)C)cc2)C(C(N)=O)=C(C)N3)cc1 (stereo not drawn) = > 128 µg/mL
• CC1=C(C(N)=O)C(c2cccc(OC(C)C)c2)n2nc(SCc3ccccc3)nc2N1 (stereo not drawn) = > 128 µg/mL
• CCOC(=O)c1nc2n(n1)C(c1ccc(N(C)C)cc1)C(C(N)=O)=C(C)N2 (stereo not drawn) = > 128 µg/mL
• CC(=O)Nc1ccc(C2C(C(N)=O)=C(C)Nc3nc(SCc4ccccc4)nn32)cc1 (stereo not drawn) = 128 µg/mL
• CC1=C(C(N)=O)C(c2ccncc2)n2nc(SCc3ccccc3)nc2N1 (stereo not drawn) = > 128 µg/mL
• CC1=C(C(N)=O)C(c2ccc(N3CCCC3)cc2)n2nc(SCc3ccccc3)nc2N1 (stereo not drawn) = 16 µg/mL
• CC1=C(C(N)=O)C(c2ccc(N(C)C)cc2)n2nc(SCc3ccc(SC(F)(F)F)cc3)nc2N1 (stereo not drawn) = 8 µg/mL
• COc1ccc(C2C(C(=O)Nc3ccccc3C)=C(C)Nc3nc(SCc4cc(C)ccc4C)nn32)cc1 (stereo not drawn) = > 128 µg/mL
• CC1=C(C(N)=O)C(c2ccc(N)cc2)n2nc(SCc3ccccc3)nc2N1 (stereo not drawn) = > 128 µg/mL
• CC1=C(C(N)=O)C(c2ccc(N(C)C)cc2)n2nc(SCc3ccc(C(F)(F)F)cc3)nc2N1 (stereo not drawn) = > 128 µg/mL

Hello, the source for this data is ChEMBL document CHEMBL3576783, in case you need it.
